- TARGET_OF_ASSAY: Wee1-like protein kinase (Homo sapiens) (UniProt P30291)
- ASSAY_REMARKS: Wee1 degradation inhibitors, primary screen, cell-based, HeLa, Wee1K328M-luciferase, luminescence (AID 1321);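 note: cells exposed to compound for 20 h before luminescence read; 0% = DMSO alone and 100% = MG132 at 30 µM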
- CONDITION_INFO: HeLa Luc-Wee1K328M stability, at 5 µM, hits give high values, 100% = proteasome inhibitor MG132 effect
About 2,600 (1.2%) of roughly 220,000 compounds were called active. The full list was thinned out, with actives kept by preference.
QUANTITY_NAME: reporter increase (%)

CCOC(=O)c1nnn2c3ccccc3c(=O)n(C)c12 = -0.3
CC(C)c1ccc(NC(=S)NC2CC3C=CC2C3)cc1 (stereo not drawn) = 18.5
O=C(CCCCCN1C(=O)c2cccc3cccc(c23)C1=O)NCc1ccco1 = -0.37

----------
- TARGET_OF_ASSAY: Wee1-like protein kinase (Homo sapiens) (UniProt P30291)
- ASSAY_REMARKS: Wee1 degradation inhibitors, primary screen, cell-based, HeLa, Wee1K328M-luciferase, luminescence (AID 1321);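 note: cells exposed to compound for 20 h before luminescence read; 0% = DMSO alone and 100% = MG132 at 30 µM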
- CONDITION_INFO: HeLa Luc-Wee1K328M stability, at 5 µM, 100% = proteasome inhibitor MG132 effect
Among all 220,000 compounds or so, about 2,600 (1.2%) were called active.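 Rule for the calls: active = activation above the mean of all tested compounds plus 3 SD, set per screening run (cut at about 8.8% in these data); inactive = the rest.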 The full list was thinned out, with actives kept by preference.
Outcome codes: active, inactive

CCCC1=Nc2cc(C(=O)NCc3ccco3)ccc2Sc2ccccc21 = active
COc1ccc(O)c(C(=O)c2cnc3onc(C(C)C)c3c2)c1 = inactive
O=[N+]([O-])/C=C1\CCCCCN1 = inactive
CC(C)CN(CC(C)C)CC(O)CN(c1ccccc1)S(=O)(=O)c1ccccc1[N+](=O)[O-] (centres undefined) = inactive
CCOc1ccccc1C(=O)NCc1ccco1 = inactive
CCCC(=O)Nc1ccc2c(c1)nc(CCNC(=O)c1ccco1)n2C = inactive
Cc1ccc(NC(=O)CS(=O)CC(=O)N(c2ccccc2)C(C)C(=O)NC2CCCC2)cc1 (centres undefined) = active
COc1ccccc1N1CCN(C(=O)CSc2ncnc3c2cnn3-c2ccc(C)c(C)c2)CC1 = inactive
O=C(CCCl)Nc1ccc(S(=O)(=O)NCc2ccco2)cc1 = inactive

----------
- TARGET_OF_ASSAY: Wee1-like protein kinase (Homo sapiens) (UniProt P30291)
- ASSAY_REMARKS: Wee1 degradation inhibitors, primary screen, cell-based, HeLa, Wee1K328M-luciferase, luminescence (AID 1321);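 note: cells exposed to compound for 20 h before luminescence read; 0% = DMSO alone and 100% = MG132 at 30 µM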
- CONDITION_INFO: HeLa Luc-Wee1K328M stability, at 5 µM, 100% = proteasome inhibitor MG132 effect
In all, about 220,000 compounds went through this assay and about 2,600 (1.2%) were called active.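 Rule for the calls: active = activation above the mean of all tested compounds plus 3 SD, set per screening run (cut at about 8.8% in these data); inactive = the rest.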 This is one part of a sample in which actives are shown more often than they occur.
Outcome codes: active, inactive

CCCC(=O)n1nc(-c2ccccc2)nc1N = inactive
Cc1ccc(Cl)c(OCC(=O)NN2CCN(C)CC2)c1 = inactive
CCCCC(CC)CNC(=O)CCCCn1c(=O)[nH]c2ccsc2c1=O (stereo not drawn) = active
O=C(CSc1nnnn1-c1ccc(O)cc1)c1ccc(F)cc1 = inactive
COc1ccccc1C(=O)n1nc(-c2ccccc2)nc1N = inactive
CCN(CC)CCNC(=O)CCCCCn1c(=O)[nH]c2cc(C(=O)OC)ccc2c1=O = inactive
CCOC(=O)C1CCN(C(c2cc3cc(C)cc(C)c3[nH]c2=O)c2nnnn2C2CCCCC2)CC1 (stereo not drawn) = inactive
Cc1ccccc1OCC(=O)Nc1ccc(N2CCN(C(=O)C(C)C)CC2)c(Cl)c1 = inactive
O=C(NN1C(=O)C2C(C1=O)C1C=CC2C12CC2)c1ccccc1Cl (stereo not drawn) = inactive
O=C(Cc1nc2ccccc2[nH]c1=O)c1ccc(Cl)cc1 = inactive
O=C(COC(=O)c1ccc(F)cc1F)Nc1ncccn1 = inactive
CC(C)(C)c1cc(P(=O)(c2ccccc2)c2ccccc2)ccc1O = inactive
C#CCNc1ccc(C(=O)OCC)cc1 = inactive
Cc1ccc(NC(=O)CC(=O)Nc2ccc(C)cc2)cc1 = inactive
CN1CCN(C(c2cc3cc4c(cc3[nH]c2=O)OCCO4)c2nnnn2C2CCCC2)CC1 (stereo not drawn) = active
O=C(Nc1ccc2nc3n(c(=O)c2c1)CCCCC3)c1ccccc1Cl = inactive
COc1ccc2oc(=O)c(C(=O)N3CCN(c4ccccc4F)CC3)cc2c1 = inactive
CSc1nc(-c2ccco2)nn1C(=O)c1ccccc1Cl = inactive
